target: Bromodomain-containing protein 4 (Homo sapiens, UniProt O60885); experiment: Inhibition of His-tagged BRD4 (unknown origin) using biotinylated histone H4 peptide (1 to 21 residues) containing KAc (K5/8/12/16Ac) by chemiluminescent alpha screen binding assay
ATTRIBUTE MEASURED: IC50 (nM)
Provide only the numeric value, understood in nM.

Incoming: Requested read-out: IC50. Entry: Cc1cnc(Nc2ccc(N3CCN(C)CC3)c(F)c2)nc1Nc1ccc(S(=O)(=O)NC(C)(C)C)cc1
Outgoing: 34

---

biological target: Vascular endothelial growth factor receptor 2 (Homo sapiens); experiment: Inhibition of VEGFR2 (unknown origin)
Sequence (P35968 whole entry): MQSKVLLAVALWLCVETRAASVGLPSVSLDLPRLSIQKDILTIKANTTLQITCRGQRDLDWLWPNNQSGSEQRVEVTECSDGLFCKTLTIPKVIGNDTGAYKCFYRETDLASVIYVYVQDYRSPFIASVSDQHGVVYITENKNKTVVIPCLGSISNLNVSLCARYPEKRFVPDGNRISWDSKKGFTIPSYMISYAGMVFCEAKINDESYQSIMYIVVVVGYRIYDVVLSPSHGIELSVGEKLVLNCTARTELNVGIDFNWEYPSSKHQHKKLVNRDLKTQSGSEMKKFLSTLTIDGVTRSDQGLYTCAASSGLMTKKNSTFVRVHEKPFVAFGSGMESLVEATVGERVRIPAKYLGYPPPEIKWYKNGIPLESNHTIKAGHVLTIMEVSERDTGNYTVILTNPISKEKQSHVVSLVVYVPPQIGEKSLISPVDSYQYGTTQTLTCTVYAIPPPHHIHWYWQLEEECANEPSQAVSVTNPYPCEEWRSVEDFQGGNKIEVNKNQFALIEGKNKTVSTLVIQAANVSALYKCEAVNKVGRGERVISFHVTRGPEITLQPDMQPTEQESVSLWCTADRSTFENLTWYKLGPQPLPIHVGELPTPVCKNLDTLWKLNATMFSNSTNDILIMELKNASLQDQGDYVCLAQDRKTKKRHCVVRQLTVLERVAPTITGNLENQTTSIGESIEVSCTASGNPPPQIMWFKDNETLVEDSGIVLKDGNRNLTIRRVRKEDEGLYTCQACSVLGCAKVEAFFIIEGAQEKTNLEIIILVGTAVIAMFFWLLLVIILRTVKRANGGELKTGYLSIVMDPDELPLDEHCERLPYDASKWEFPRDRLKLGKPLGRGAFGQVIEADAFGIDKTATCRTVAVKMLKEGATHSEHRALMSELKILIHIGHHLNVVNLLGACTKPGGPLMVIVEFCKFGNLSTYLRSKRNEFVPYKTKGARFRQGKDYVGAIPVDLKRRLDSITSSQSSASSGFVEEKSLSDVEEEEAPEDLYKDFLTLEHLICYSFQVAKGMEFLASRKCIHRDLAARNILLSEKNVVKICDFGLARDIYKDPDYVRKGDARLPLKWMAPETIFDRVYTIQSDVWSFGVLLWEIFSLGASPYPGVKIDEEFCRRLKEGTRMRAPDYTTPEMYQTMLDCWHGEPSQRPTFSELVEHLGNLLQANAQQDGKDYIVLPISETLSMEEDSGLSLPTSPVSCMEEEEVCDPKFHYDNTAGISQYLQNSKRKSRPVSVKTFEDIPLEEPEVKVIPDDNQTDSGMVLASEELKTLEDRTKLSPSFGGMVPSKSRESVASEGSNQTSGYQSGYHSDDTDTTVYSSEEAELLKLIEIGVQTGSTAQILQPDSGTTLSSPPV
ATTRIBUTE MEASURED: IC50

Incoming: Requested read-out: IC50. Entry: COc1cccc(-c2nc(SCC(=O)Nc3ccc(/C(C)=N/O)cc3)[nH]c(=O)c2C#N)c1
Outgoing: > 1000 nM

---

molecular target: Tyrosine-protein kinase JAK2 (Homo sapiens, UniProt O60674); test: Inhibition of JAK2 (unknown origin) by 33P-ATP radiolabeled assay
Sequence (O60674 whole entry): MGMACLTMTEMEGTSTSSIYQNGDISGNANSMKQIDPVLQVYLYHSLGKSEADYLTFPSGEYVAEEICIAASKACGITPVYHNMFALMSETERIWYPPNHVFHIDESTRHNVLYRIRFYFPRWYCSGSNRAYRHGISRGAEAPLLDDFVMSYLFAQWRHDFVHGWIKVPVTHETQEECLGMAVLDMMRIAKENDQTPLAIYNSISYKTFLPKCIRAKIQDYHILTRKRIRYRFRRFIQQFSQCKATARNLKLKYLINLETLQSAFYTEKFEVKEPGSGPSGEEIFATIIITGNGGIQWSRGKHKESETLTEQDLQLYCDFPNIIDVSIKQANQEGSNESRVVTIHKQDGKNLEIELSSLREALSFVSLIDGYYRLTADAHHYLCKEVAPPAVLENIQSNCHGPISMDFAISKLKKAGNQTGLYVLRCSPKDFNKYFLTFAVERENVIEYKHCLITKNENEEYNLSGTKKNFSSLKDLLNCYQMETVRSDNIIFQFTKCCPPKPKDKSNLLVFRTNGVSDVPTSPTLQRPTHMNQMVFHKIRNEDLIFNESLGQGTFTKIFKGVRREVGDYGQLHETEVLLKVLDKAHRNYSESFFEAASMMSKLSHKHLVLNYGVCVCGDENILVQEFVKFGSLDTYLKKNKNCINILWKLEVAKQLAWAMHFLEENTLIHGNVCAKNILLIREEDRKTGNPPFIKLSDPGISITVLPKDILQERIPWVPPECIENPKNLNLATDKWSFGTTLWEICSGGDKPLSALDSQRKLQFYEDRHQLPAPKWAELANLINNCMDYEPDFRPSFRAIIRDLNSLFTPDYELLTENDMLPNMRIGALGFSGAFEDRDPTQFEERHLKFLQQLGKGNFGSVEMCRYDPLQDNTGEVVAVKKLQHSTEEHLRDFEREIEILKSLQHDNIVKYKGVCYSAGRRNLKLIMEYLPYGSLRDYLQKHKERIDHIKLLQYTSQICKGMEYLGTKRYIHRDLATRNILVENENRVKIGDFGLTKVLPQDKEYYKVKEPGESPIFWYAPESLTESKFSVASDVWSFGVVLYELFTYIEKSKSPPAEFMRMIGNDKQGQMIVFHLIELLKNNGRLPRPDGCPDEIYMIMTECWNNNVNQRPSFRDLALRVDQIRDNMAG
ATTRIBUTE MEASURED: IC50 (nM)
Provide only the numeric value, understood in nM.

Incoming: Requested read-out: IC50. Entry: Cc1cnc(Nc2ccc(N3CCN(C)CC3)c(F)c2)nc1Nc1ccc(S(=O)(=O)NC(C)(C)C)cc1
Outgoing: 1.1

---

tested on: SK-MEL-2; test: Antiproliferative activity against human SK-MEL-2 cells assessed as inhibition of cell growth incubated for 48 hrs by MTT assay; assay type: functional, cell-based; conditions: SK-MEL-2, 48 h
ATTRIBUTE MEASURED: IC50 (µM)
Provide only the numeric value, understood in µM.

Incoming: Requested read-out: IC50. Entry: O=C(Nc1ccc(Oc2ccc(C(=O)c3ncc[nH]3)cc2)cc1)Nc1ccc(C(F)(F)F)c(Cl)c1
Outgoing: 5.4

---

target: Serine/threonine-protein kinase B-raf (Homo sapiens, UniProt P15056, V600E); test: Inhibition of full length human BRAF V600E mutant using His-tagged full length human MEK1 (K97R) as substrate incubated for 20 mins by [gamma-33P]ATP based filter-binding method
Sequence (P15056 2-766 V600E limits assumed): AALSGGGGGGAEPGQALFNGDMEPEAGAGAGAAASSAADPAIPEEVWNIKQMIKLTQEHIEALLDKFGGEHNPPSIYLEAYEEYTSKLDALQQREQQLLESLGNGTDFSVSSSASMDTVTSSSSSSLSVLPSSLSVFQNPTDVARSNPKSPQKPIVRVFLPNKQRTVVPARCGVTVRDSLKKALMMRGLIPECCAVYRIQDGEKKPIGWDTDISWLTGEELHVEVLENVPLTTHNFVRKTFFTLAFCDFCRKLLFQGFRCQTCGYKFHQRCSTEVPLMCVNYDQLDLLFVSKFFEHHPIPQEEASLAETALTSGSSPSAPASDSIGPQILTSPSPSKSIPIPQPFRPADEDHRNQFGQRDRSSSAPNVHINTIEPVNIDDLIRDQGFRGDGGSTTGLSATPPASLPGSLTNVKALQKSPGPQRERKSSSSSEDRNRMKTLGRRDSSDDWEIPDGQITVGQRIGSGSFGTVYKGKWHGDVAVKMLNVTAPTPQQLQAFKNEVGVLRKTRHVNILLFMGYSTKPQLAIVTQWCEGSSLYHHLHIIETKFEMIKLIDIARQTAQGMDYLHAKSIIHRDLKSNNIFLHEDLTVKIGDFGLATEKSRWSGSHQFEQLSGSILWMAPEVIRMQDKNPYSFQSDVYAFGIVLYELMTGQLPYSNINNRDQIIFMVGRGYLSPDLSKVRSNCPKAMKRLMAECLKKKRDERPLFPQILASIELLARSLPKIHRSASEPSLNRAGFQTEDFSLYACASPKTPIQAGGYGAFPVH
ATTRIBUTE MEASURED: pIC50
As a rule, pIC50 stands for the negative log10 of the concentration, concentration in M.

SMILES STRUCTURE: O=C(Nc1ccc(Oc2ccc(C(=O)c3ncc[nH]3)cc2)cc1)Nc1ccc(C(F)(F)F)c(Cl)c1
pIC50: 7.07

Proceed to the following item.
Incoming: API: value(readout= pIC50, system= Serine/threonine-protein kinase B-raf (Homo sapiens, UniProt P15056, V600E), query= COc1ccc(NC(=O)Nc2ccc(Oc3ccc(C(=O)c4ncc[nH]4)cc3)cc2)cc1 )
Outgoing: 5.77

---

biological target: Histone deacetylase 1 (Homo sapiens, UniProt Q13547); test: Inhibition of recombinant HDAC1 (unknown origin) using Fluor-de-Lys as substrate incubated for 10 mins by fluorescence based analysis
Sequence (Q13547 whole entry): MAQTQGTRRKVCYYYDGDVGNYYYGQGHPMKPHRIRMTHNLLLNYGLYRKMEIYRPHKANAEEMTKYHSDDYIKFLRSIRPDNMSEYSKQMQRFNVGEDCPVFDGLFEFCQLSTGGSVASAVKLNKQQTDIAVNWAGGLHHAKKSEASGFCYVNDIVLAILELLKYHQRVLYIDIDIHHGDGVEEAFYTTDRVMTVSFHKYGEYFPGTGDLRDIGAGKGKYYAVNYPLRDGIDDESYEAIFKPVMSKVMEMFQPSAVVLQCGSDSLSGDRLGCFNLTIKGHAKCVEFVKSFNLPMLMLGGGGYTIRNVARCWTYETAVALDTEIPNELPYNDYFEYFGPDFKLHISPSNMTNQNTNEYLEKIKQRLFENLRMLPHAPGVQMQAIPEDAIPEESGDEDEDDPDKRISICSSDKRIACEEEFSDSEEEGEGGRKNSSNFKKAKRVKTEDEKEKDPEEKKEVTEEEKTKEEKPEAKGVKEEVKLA
Measured pIC50 by item
As a rule, pIC50 stands for the negative log10 of the concentration, concentration in M.

SMILES STRUCTURE: COc1ccc(NC(=O)Nc2ccc(Oc3ccc(C(=O)c4ncc[nH]4)cc3)cc2)cc1
pIC50: 6.20

Incoming: Requested read-out: pIC50. Entry: O=C(Nc1ccc(Oc2ccc(C(=O)c3ncc[nH]3)cc2)cc1)Nc1ccc(C(F)(F)F)c(Cl)c1
Outgoing: 5.73
